Test system: Wolbachia pipientis
Experiment: Anti-Wolbachia Cell-Based Screen
Type: functional
Parameters: scale not given: in the data most compounds retested in dose-response had high values
Settings: 5 µM
About 13,000 (27%) of roughly 48,000 compounds showed an effect of 50% or more. The list shows a part of the results.
observation type: Percent Effect (%)

# compound, target under test, measured
records = [
    ("NS(=O)(=O)c1ccc(NC(=O)CSc2ccc3c(c2)CCC3)cc1", "Wolbachia pipientis", 16.99),
    ("CC(C)CN1CCN(S(=O)(=O)c2cn(C)cn2)[C@H]2CS(=O)(=O)C[C@H]21", "Wolbachia pipientis", -0.9827),
    ("CCCNC(=O)CCNC(=O)N1CCc2c(F)ccc(F)c2C1", "Wolbachia pipientis", -1.074),
    ("Cc1ccc(NC(=O)N2CCOC(C(N)=O)C2)cc1C(F)(F)F (configuration not stated)", "Wolbachia pipientis", 103.5),
    ("Cc1cccc(CN2CCC3(CCCN(Cc4cnn(C)c4)C3)C2)n1.O=C(O)C(F)(F)F.O=C(O)C(F)(F)F (configuration not stated)", "Wolbachia pipientis", 99.91),
    ("O=C(O)C1(n2ccc(-c3ccco3)n2)CCN(Cc2cccnc2)CC1", "Wolbachia pipientis", 100.5),
    ("CCN(C(c1cccnc1)c1ccc2c(c1)CCC2)S(C)(=O)=O (configuration not stated)", "Wolbachia pipientis", -0.855),
    ("COc1ccc(NC(=O)N2CCC(c3nnc[nH]3)CC2)cc1C", "Wolbachia pipientis", -18.03),
    ("Cn1nc(Cn2cccn2)c2c1CN(Cc1ccoc1)C2.O=C(O)C(F)(F)F", "Wolbachia pipientis", -5.298),
    ("O=C(CCN1CCCCC1c1cc2ccccc2[nH]1)N1CCOCC1 (configuration not stated)", "Wolbachia pipientis", -12.84),
    ("Cc1ccc(N2CC[C@@H]3[C@@H]2CCN3C(=O)Cc2ccccc2)nn1.O=C(O)C(F)(F)F", "Wolbachia pipientis", 108),
    ("Cc1ncc2c(n1)CN(Cc1nnc(Cc3ccccc3)o1)CC2", "Wolbachia pipientis", 5.635),
    ("CCN1C[C@@H]2CN(S(=O)(=O)c3cccs3)C[C@@H]2C1=O", "Wolbachia pipientis", -17.06),
    ("O[C@@H]1CN(c2nc3ccccc3o2)CC[C@H]1c1ccc2c(c1)OCO2", "Wolbachia pipientis", 107.9),
    ("NC(=O)C1CN(C(=O)NCC2(c3ccc(F)cc3)CCC2)CCO1 (configuration not stated)", "Wolbachia pipientis", 2.915),
    ("Cc1ccc(N2CC[C@@H]3[C@@H]2CCN3C(=O)Cc2cccs2)nn1.O=C(O)C(F)(F)F", "Wolbachia pipientis", 109.8),
    ("CC(C)S(=O)(=O)C(C)C(=O)Nc1ccc2oc(C3CC3)nc2c1 (configuration not stated)", "Wolbachia pipientis", -8.387),
    ("Cc1cccc(CN2CCC3(CCC(CC(=O)N(C)C)CC3)CC2)n1.O=C(O)C(F)(F)F", "Wolbachia pipientis", -48.49),
    ("c1cc(CN2CCCC3(CCN(CC4CCCO4)CC3)C2)n[nH]1 (configuration not stated)", "Wolbachia pipientis", 86.72),
    ("COC(=O)[C@H](C)NC(=O)Cc1c(C)nc2c(c1C)c(=O)[nH]n2C", "Wolbachia pipientis", -6.613),
    ("CN1CCC(N[C@@H]2CO[C@H](CNC(=O)Nc3ccccc3)[C@H]2O)CC1", "Wolbachia pipientis", -15.1),
    ("O=C(O)C1(n2ccc(-c3ccco3)n2)CCN(Cc2ccsc2)CC1", "Wolbachia pipientis", 105.5),
    ("O=C(O)c1ccnc(-c2ccnc(N3CCC4(CCO4)CC3)n2)c1", "Wolbachia pipientis", -4.14),
    ("CN(C)CC1CN(c2cnc3ccccc3n2)CCO1 (configuration not stated)", "Wolbachia pipientis", 11.03),
    ("c1ccc2oc(N3CCC(c4nncn4C4CC4)CC3)nc2c1", "Wolbachia pipientis", -9.735),
    ("O[C@@H]1CN(c2nc3ccccc3s2)CC[C@H]1c1ccc2c(c1)OCO2", "Wolbachia pipientis", 110.1),
    ("O=C(c1cc(C2CCCCN2C(=O)C2CCC2)n[nH]1)N1CCOCC1 (configuration not stated)", "Wolbachia pipientis", 97.85),
    ("CN1CCN(C2CCN(c3cnc4ccccc4n3)CC2)C1=O", "Wolbachia pipientis", 19.91),
    ("COCCOc1ccc(S(=O)(=O)Nc2cccnc2O)cc1C", "Wolbachia pipientis", -11.72),
    ("c1ccc2sc(N3CCOC(Cn4cccn4)C3)nc2c1 (configuration not stated)", "Wolbachia pipientis", 4.7),
    ("O=C(CCN1CCCCCC1c1ccco1)N1CCOCC1 (configuration not stated)", "Wolbachia pipientis", 1.206),
    ("Cc1cccc(CN2CCOC3(CCCN(CC(=O)N(C)C)C3)C2)n1.O=C(O)C(F)(F)F.O=C(O)C(F)(F)F (configuration not stated)", "Wolbachia pipientis", 7.418),
]
